meta.source: PubChem BioAssay (NCI)

Test system: OVCAR-8 ovarian
PROTOCOL_DETAILS: NCI tumour cell line growth inhibition, 48 h
TGI values for the molecules below.
PROPERTY_MEASURED: TGI

{"columns": ["MOLECULE", "TARGET_DESC", "TEST_RESULT"],
 "data": [
  ["Cc1cccc2c1C/C(=C\\c1cccc(C)c1C(=O)O)C2=O", "OVCAR-8 ovarian", "> 100 µM"],
  ["COc1cc(-c2n/c(=C\\c3c(O)[nH]c4ccccc34)cc3c2=Nc2ccccc2-3)cc(OC)c1OC", "OVCAR-8 ovarian", "> 100 µM"],
  ["CC(=O)NC1=CC(=O)c2cc(C)cc(O)c2C1=O", "OVCAR-8 ovarian", "18.7 µM"],
  ["COC(=O)CCN(CCC(=O)OC)C1CC1", "OVCAR-8 ovarian", "> 100 µM"],
  ["CCOC(=O)C(C)c1nc2cc(N3CCN(C)CC3)c(F)cc2[nH]c1=O (stereo not drawn)", "OVCAR-8 ovarian", "> 100 µM"],
  ["COc1cc2c(cc1OCCCN1CCN(c3cc(=O)oc4c(C)c(OC)ccc34)CC1)N=C[C@@H]1CCCN1C2=O", "OVCAR-8 ovarian", "> 100 µM"],
  ["COc1ccc2c(c1)-c1oc3ccccc3c(=O)c1CO2", "OVCAR-8 ovarian", "> 100 µM"],
  ["COc1cc(-c2nc3nc(N4CCN(C)CC4)ccc3[nH]2)c(OC)c2[nH]c(COC(C)=O)nc12", "OVCAR-8 ovarian", "> 100 µM"]
]}
